biological target: aminoglycoside 2''-nucleotidyltransferase ANT(2'')-Ia (Klebsiella pneumoniae); assay: growth inhibition of ANT(2'')-Ia E. coli with gentamicin, ANT(2'')-Ia inhibitor project, OD600 growth (AID 1159619); conditions: E. coli over-expressing ANT(2'')-Ia with gentamicin, 18 h
Field: AC50. Provide a value for each of the compounds that follow.

CCN1CCC(CC(=O)Nc2n[nH]c3nc(-c4cccs4)c(Br)cc23)CC1	26.1 µM
Cc1ccc(NC(=O)c2ccnc(N3CCCC3)c2)cc1-c1ccc(C(=O)NCC2CC2)cc1	70 µM
COc1ccc2cc(-c3c(-c4ccncc4)nc(-c4ccc(S(C)=O)cc4C)n3C)ccc2c1 (stereo unspecified)	53.6 µM
CS(=O)(=O)CCNCc1ccc(-c2ccc3ncnc(Nc4ccc(OCc5ccccc5)c(Cl)c4)c3c2)o1	63 µM
CCc1ccc(Oc2nccc(-c3c(-c4ccc(F)cc4)ncn3C3CCNCC3)n2)cc1	69.7 µM
COc1cc2ncn(-c3cc(O[C@@H](C)c4ccccc4Cl)c(C(N)=O)s3)c2cc1OC	63.4 µM

Quick batch: AC50 for everything below.
1. CCn1c(-c2nonc2N)nc2cnc(Oc3cccc(NC(=O)c4ccc(OCCN5CCOCC5)cc4)c3)cc21
2. CN1CCN(Cc2ccc(-c3cc4ncnc(Nc5ccc(OCc6cccc(F)c6)c(Cl)c5)c4s3)o2)CC1
3. CS(=O)(=O)CCNCc1ccc(-c2ccc3ncnc(Nc4ccc(OCc5ccccc5)c(C(F)(F)F)c4)c3c2)o1
4. C[C@@H](Oc1cc(-n2cnc3ccc(OCC4CCN(C)CC4)cc32)sc1C(N)=O)c1ccccc1C(F)(F)F

1. 71 µM
2. 24.3 µM
3. 66 µM
4. 45.2 µM

---

Field: AC50. Provide a value for each of the compounds that follow.
target: aminoglycoside 2''-nucleotidyltransferase ANT(2'')-Ia (Klebsiella pneumoniae); experiment: growth inhibition of ANT(2'')-Ia E. coli with gentamicin, ANT(2'')-Ia inhibitor project, OD600 growth (AID 1159619); conditions: E. coli over-expressing ANT(2'')-Ia with gentamicin, 18 h

C[C@@H](Oc1cc(-n2cnc3ccc(OCC4CCN(C)CC4)cc32)sc1C(N)=O)c1ccccc1Cl	57.4 µM

Quick batch: AC50 for everything below.
1. COc1cc2ncn(-c3cc(O[C@H](C)c4ccccc4Cl)c(C(N)=O)s3)c2cc1OC
2. CS(=O)(=O)CCNCc1ccc(-c2ccc3ncnc(Nc4ccc(OCc5cccc(F)c5)c(C(F)(F)F)c4)c3c2)o1
3. COc1cc2ncnc(Nc3ccc4c(cnn4Cc4ccccc4)c3)c2cc1OC
4. CNC(=O)c1sc(-n2cnc3cc(OC)c(OC)cc32)cc1OCc1ccccc1C(F)(F)F
5. C[C@@H](Oc1cc(-n2cnc3ccc(OC4CCN(C)CC4)cc32)sc1C(N)=O)c1ccccc1Cl
6. CS(=O)(=O)CCNCc1ccc(-c2ccc3ncnc(Nc4ccc(OCc5cccc(C(F)(F)F)c5)cc4)c3c2)o1
7. NS(=O)(=O)c1cccc(-c2cc3ccncc3cc2OCc2ccccc2)c1
8. CN(C)CCOc1ccc(-c2nc(-c3ccc4c(c3)CC/C4=N\O)c(-c3ccncc3)[nH]2)cc1

71.5 µM
58.8 µM
69.8 µM
71.6 µM
46.5 µM
62.4 µM
35.2 µM
59.1 µM

---

biological target: aminoglycoside 2''-nucleotidyltransferase ANT(2'')-Ia (Klebsiella pneumoniae); assay: growth inhibition of ANT(2'')-Ia E. coli with gentamicin, ANT(2'')-Ia inhibitor project, OD600 growth (AID 1159619); conditions: E. coli over-expressing ANT(2'')-Ia with gentamicin, 18 h
The source made the active and inactive calls. How the calls were made is not given here.
metric.name: outcome

Use these answered entries as a reference point.
Cc1ccc(NC(=O)CC2CC2)cc1-c1ccc(C(=O)NCC2CC2)cc1	inactive
CN(C)CCNC(=O)Nc1ccc(N(C)c2ccnc(Nc3ccc(CS(C)(=O)=O)cc3)n2)cc1	inactive
CCCN1CCC(Oc2cc(Nc3nc(Nc4cccc(F)c4C(N)=O)c4cc[nH]c4n3)c(OC)cc2Cl)CC1	inactive
CNC(=O)c1ncccc1Nc1nc(Nc2cc3c(cc2OC)CCCN3C(=O)CN(C)C)nc2[nH]ccc12	inactive

Quick batch: outcome for everything below.
1. CCc1nccc2c1nc(-c1nonc1N)n2CC
2. CCc1cccc(NC(=O)Nc2ccc(Oc3ccc4nc(NC(=O)OC)[nH]c4c3)cc2)c1
3. COc1cc(N2CCN(C(C)C)CC2)ccc1Nc1nc(Nc2cccc3ncccc23)c2cc[nH]c2n1
4. O=C1NC(=O)C(c2cccc([N+](=O)[O-])c2)=C1Nc1cc(Cl)c(O)c(Cl)c1
5. Cc1ccc(Nc2ccnc(Nc3cccc(C(N)=O)c3)n2)cc1O
6. O=C(Nc1ccc(Oc2ccc3nc(NC(=O)c4ccco4)[nH]c3c2)cc1)Nc1cc(C(F)(F)F)ccc1F
7. COc1cc2c(cc1Nc1nc(Nc3cccc(F)c3C(N)=O)c3cc[nH]c3n1)N(C(=O)CN1CCN(C(C)C)CC1)CC2

inactive
inactive
inactive
inactive
inactive
inactive
inactive

---

molecular target: aminoglycoside 2''-nucleotidyltransferase ANT(2'')-Ia (Klebsiella pneumoniae); test: growth inhibition of ANT(2'')-Ia E. coli with gentamicin, ANT(2'')-Ia inhibitor project, OD600 growth (AID 1159619); conditions: E. coli over-expressing ANT(2'')-Ia with gentamicin, 18 h
Field: AC50. Provide a value for each of the compounds that follow.

Use these answered entries as a reference point.
CS(=O)(=O)CCNCc1ccc(-c2ccc3ncnc(Nc4ccc(OCc5ccccc5)c(Br)c4)c3c2)o1	56.3 µM
COc1ccc(-c2nn3ncccc3c2-c2ccnc(Nc3ccc4c(c3)OCCO4)n2)cc1	67 µM
Cc1cc(-c2ccccn2)cc(C)c1/C=C/c1cncc(-c2nn[nH]n2)c1	75.9 µM

Quick batch: AC50 for everything below.
1. COc1cc2ncn(-c3cc(OCc4ccccc4C(F)(F)F)c(C(=O)N(C)C)s3)c2cc1OC
2. O=S1CCN(Cc2ccc(-c3ccc4ncnc(Nc5ccc(OCc6ccccc6)c(Cl)c5)c4c3)o2)CC1
3. CC1=C(C(=O)Nc2ccc3[nH]ncc3c2)C(c2ccc3ccccc3c2)CC(=O)N1 (stereo unspecified)

["66.1 µM", "68 µM", "68.5 µM"]

---

target: aminoglycoside 2''-nucleotidyltransferase ANT(2'')-Ia (Klebsiella pneumoniae); test: growth inhibition of ANT(2'')-Ia E. coli with gentamicin, ANT(2'')-Ia inhibitor project, OD600 growth (AID 1159619); conditions: E. coli over-expressing ANT(2'')-Ia with gentamicin, 18 h
Activity calls are given as the source filed them. The rule behind the calls is not given here.
metric.name: outcome

Use these answered entries as a reference point.
C[C@@H](Oc1cc(-n2cnc3ccc(OC[C@@H](O)CO)cc32)sc1C(N)=O)c1ccccc1Cl	inactive
N#Cc1c(NC(=O)c2ccccc2F)sc2c1CCCC2	inactive
Cc1ccc(O)cc1Nc1ccnc2cc(-c3ccccn3)ccc12	inactive
Cc1cc(O)cc(C)c1/C=C/c1cncc(C(=O)N(C)C)c1	inactive
CCn1c(-c2nonc2N)nc2c(C#CC(C)(C)O)ncc(OC3CCNCC3)c21	inactive
COC(=O)Nc1nc2ccc(Oc3ccc(NC(=O)Nc4cccc(Br)c4)cc3)cc2[nH]1	inactive
N#Cc1ccc(Oc2nccc(-c3c(-c4ccc(F)cc4)ncn3C3CCNCC3)n2)cc1	inactive
Cc1cc(O)cc(C)c1/C=C/c1cncc(C(=O)OC(C)(C)C)c1	inactive

Alright, here's another compound for you.
Can you share its outcome? I mean this compound: "CN1CCC(n2cnc(-c3ccc(F)cc3)c2-c2ccnc(NCCO)n2)CC1"
inactive
